# concentration at 4 h per record follows
# TEST DETAILS: Plasma concentration in Sprague-Dawley rat at 10 mg/kg, po at 4 hrs
# Type: ADME, organism-based

// solved cases for concentration at 4 h follow
Cc1ccc(-n2nccn2)c(C(=O)N2C[C@@H]3CN(c4nc5cc(Cl)ccc5o4)C[C@@H]3C2)c1 ... 409 nM
Cc1ccc(-n2nccn2)c(C(=O)N2C[C@@H]3CN(c4ncc5cc(F)ccc5n4)C[C@@H]3C2)c1 ... 24 nM
Cc1ccc(-n2nccn2)c(C(=O)N2C[C@@H]3CN(c4nc5cc(F)ccc5o4)C[C@@H]3C2)c1 ... 77 nM

In plain terms, `Cc1ccc(-n2nccn2)c(C(=O)N2C[C@@H]3CN(c4nc5ccccc5o4)C[C@@H]3C2)c1` has a documented concentration at 4 h of 341 nM
